Tested on: CCRIS mutagenicity, Ames/micronucleus/aberration tests
Assay: CCRIS mutagenicity studies
Settings: Test System: AMES SALMONELLA TYPHIMURIUM; Strain/Indicator: TA7005; Metabolic Activation: NONE; Method: FLUCTUATION (MICROTITER)
Activity calls are given as the source filed them. No rule for the calls is given here.
Output constraint: value belongs to 1 for active, -1 for inactive

Exam item: I'd appreciate the recorded outcome for `O=c1c(O)c(-c2ccc(O)c(O)c2)oc2cc(O)cc(O)c12` from this test.
Marked response: 1

Exam item: Hi team, can someone confirm the assay call for `Nc1ccc(Oc2ccc(N)cc2)cc1` ?
Marked response: 1

Exam item: Write down the call the test reported for this compound. Item: CCC1CO1 (configuration not stated)
Marked response: -1

Exam item: What call does the record list for `Nc1ncn([C@@H]2O[C@H](CO)[C@@H](O)[C@H]2O)c(=O)n1` ?
Marked response: -1

Exam item: Just curious, what result did `CC(C)CON=O` get here?
Marked response: -1

Exam item: Look up the recorded call for `CS(C)=O` in this test.
Marked response: -1

Exam item: For this compound, state the assay outcome: `CC(C)(OO)c1ccccc1`
Marked response: 1
